biological target: SARS-CoV-2 wild-type spike receptor-binding domain (SARS-CoV-2, WT (MN908947), UniProt P0DTC2)
test-readout: binding result

[[record]]
binder = "XGv285 (antibody, V domains shown) VH: QVQLVQSGAEVKKPGASMKVSCKASGYTFISYYMHWVRQAPGQELEWMGIINPSGGSTSYAQKFQGRVTMTRDTSTSTVYMELRSLRSEDTAVYYCARAEGSSWLGWFDPWGQGTLVTVSS VL: QSVLTQPPSASGTPGQRVTISCSGSSSNIGSNLVYWYQHLPGTAPKLLIYKNTQRPSGVPDRFSGSKSGTSASLAISGLRSDDEGDYYCAAWDDGLSGSGWVFGGGTKVT"
test_readout = "binding result"
measured_value = "binds"

[[record]]
binder = "XGv286 (antibody, V domains shown) VH: QVQLVQSGAEVKKPGASVKVSCKASGYTFSSYYIHWVRQAPGQGPEWMAIINPGDGGASYAQKFQGRVTLTRDTSTSTLYMELSSLRSEDTAVYYCARAEGSSWLGWFDPWGQGTLVTVSS VL: QSVLTQPPSASGTPGQRVTISCSGSSSNIGSNYVYWYQQLPGTAPKLLIYRNNQRPSGVPDRFSGSRSGTSASLAISGLRSEDEADYYCAAWDDGLSGSGWVFGGGTKLT"
test_readout = "binding result"
measured_value = "binds"

